# subjectOfTest: RAC-alpha serine/threonine-protein kinase (Homo sapiens)
# Sequence (P31749 whole entry): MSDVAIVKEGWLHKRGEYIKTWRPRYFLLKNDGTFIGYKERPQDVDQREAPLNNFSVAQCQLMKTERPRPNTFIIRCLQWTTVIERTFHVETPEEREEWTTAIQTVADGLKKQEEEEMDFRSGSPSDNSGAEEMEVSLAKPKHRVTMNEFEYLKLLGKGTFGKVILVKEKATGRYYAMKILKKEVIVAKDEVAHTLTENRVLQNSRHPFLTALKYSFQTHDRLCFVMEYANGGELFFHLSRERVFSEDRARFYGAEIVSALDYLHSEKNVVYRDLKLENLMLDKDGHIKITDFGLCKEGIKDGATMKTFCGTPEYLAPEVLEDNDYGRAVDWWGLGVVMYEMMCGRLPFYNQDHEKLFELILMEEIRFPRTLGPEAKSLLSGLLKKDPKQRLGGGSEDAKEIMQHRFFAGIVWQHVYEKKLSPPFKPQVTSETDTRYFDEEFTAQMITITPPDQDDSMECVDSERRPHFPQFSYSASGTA
# assayDetails: Inhibition of AKT-1 at 1 uM
// reported inhibition per item

- cpdSmiles: "CC(=O)OC[C@H]1O[C@@H](NC(=O)CCCn2[se]c3ccccc3c2=O)[C@H](OC(C)=O)[C@@H](OC(C)=O)[C@@H]1OC(C)=O"
  subjectOfTest: "RAC-alpha serine/threonine-protein kinase (Homo sapiens)"
  inhibition [%]: 67
- cpdSmiles: "O=C(CCCn1[se]c2ccccc2c1=O)N[C@@H]1O[C@H](CO)[C@@H](O)[C@H](O)[C@H]1O"
  subjectOfTest: "RAC-alpha serine/threonine-protein kinase (Homo sapiens)"
  inhibition [%]: 60
- cpdSmiles: "O=c1c2ccccc2[se]n1-c1ccccc1"
  subjectOfTest: "RAC-alpha serine/threonine-protein kinase (Homo sapiens)"
  inhibition [%]: 22
- cpdSmiles: "CC(=O)OC[C@H]1O[C@@H](O[C@H]2[C@H](OC(C)=O)[C@@H](OC(C)=O)[C@H](n3[se]c4ccccc4c3=O)O[C@@H]2COC(C)=O)[C@H](OC(C)=O)[C@@H](OC(C)=O)[C@H]1OC(C)=O"
  subjectOfTest: "RAC-alpha serine/threonine-protein kinase (Homo sapiens)"
  inhibition [%]: 63

---

# subjectOfTest: UniProt:O75676
# Sequence (O75676 whole entry, looked up): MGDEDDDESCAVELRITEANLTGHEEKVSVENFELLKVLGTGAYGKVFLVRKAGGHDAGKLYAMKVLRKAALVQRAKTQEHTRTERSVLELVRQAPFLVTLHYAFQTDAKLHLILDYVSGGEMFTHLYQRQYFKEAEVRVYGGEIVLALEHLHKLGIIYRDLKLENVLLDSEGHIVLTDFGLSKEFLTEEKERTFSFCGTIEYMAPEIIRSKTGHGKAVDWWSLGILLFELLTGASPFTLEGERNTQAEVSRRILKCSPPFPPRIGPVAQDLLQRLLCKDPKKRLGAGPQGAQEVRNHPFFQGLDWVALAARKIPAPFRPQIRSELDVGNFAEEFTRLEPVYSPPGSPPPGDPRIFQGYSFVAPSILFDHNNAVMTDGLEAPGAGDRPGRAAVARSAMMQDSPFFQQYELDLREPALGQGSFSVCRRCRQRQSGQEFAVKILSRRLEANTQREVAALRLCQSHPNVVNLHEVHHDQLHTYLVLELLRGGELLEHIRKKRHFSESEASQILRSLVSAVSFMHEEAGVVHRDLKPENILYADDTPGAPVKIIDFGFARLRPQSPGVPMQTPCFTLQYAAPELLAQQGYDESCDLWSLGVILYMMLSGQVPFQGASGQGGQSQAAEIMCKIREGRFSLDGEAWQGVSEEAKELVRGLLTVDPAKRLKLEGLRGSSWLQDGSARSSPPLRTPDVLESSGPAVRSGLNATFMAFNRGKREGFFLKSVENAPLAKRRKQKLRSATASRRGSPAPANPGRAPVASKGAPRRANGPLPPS
# assayDetails: Inhibition of RPS6KA4 at 1 uM
quantityKind: inhibition (%)

- cpdSmiles: "CC(=O)OC[C@H]1O[C@@H](NC(=O)CCCn2[se]c3ccccc3c2=O)[C@H](OC(C)=O)[C@@H](OC(C)=O)[C@@H]1OC(C)=O"
  reading: 0
- cpdSmiles: "O=C(CCCn1[se]c2ccccc2c1=O)N[C@@H]1O[C@H](CO)[C@@H](O)[C@H](O)[C@H]1O"
  reading: 0
- cpdSmiles: "O=c1c2ccccc2[se]n1-c1ccccc1"
  reading: 0
- cpdSmiles: "CC(=O)OC[C@H]1O[C@@H](O[C@H]2[C@H](OC(C)=O)[C@@H](OC(C)=O)[C@H](n3[se]c4ccccc4c3=O)O[C@@H]2COC(C)=O)[C@H](OC(C)=O)[C@@H](OC(C)=O)[C@H]1OC(C)=O"
  reading: 0

---

# subjectOfTest: UniProtKB P17252
# assayDetails: Inhibition of PKCalpha
// reported IC50 per item

- cpdSmiles: "CC(=O)OC[C@H]1O[C@@H](NC(=O)CCCn2[se]c3ccccc3c2=O)[C@H](OC(C)=O)[C@@H](OC(C)=O)[C@@H]1OC(C)=O"
  subjectOfTest: "UniProtKB P17252"
  IC50: "0.74 µM"
- cpdSmiles: "O=C(CCCn1[se]c2ccccc2c1=O)N[C@@H]1O[C@H](CO)[C@@H](O)[C@H](O)[C@H]1O"
  subjectOfTest: "UniProtKB P17252"
  IC50: "0.73 µM"

---

# subjectOfTest: Tyrosine-protein kinase ABL1 (Homo sapiens) (UniProt P00519)
# Sequence (P00519 whole entry): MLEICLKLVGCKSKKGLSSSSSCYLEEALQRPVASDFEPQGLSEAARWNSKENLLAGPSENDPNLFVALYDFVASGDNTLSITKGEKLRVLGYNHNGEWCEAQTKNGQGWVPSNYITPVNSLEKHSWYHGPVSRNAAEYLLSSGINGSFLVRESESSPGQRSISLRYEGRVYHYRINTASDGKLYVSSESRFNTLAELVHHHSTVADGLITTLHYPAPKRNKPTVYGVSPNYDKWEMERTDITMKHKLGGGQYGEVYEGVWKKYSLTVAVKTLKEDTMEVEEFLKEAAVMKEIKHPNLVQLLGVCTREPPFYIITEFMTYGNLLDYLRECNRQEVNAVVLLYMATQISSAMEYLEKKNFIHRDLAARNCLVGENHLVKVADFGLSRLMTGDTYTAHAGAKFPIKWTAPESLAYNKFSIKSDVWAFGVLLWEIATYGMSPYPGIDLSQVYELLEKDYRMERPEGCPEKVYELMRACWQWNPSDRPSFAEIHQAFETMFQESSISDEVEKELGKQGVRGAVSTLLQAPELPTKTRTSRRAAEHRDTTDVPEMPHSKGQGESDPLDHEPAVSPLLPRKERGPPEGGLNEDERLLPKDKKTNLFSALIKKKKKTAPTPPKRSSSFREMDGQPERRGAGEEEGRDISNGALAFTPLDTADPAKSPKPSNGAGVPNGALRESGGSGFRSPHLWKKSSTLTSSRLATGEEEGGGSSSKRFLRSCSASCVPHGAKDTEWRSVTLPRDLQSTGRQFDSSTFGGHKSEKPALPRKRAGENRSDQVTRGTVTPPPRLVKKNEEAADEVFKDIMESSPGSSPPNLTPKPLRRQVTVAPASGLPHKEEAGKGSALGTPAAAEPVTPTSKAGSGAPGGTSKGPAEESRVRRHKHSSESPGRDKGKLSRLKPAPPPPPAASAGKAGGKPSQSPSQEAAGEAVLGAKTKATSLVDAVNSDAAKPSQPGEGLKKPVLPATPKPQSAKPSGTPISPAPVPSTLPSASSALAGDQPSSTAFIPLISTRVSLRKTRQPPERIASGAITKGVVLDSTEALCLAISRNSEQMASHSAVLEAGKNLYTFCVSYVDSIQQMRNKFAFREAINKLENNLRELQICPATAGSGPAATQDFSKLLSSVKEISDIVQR
# assayDetails: Inhibition of ABL1 at 1 uM

- compound: "CC(=O)OC[C@H]1O[C@@H](NC(=O)CCCn2[se]c3ccccc3c2=O)[C@H](OC(C)=O)[C@@H](OC(C)=O)[C@@H]1OC(C)=O"
  unitString: "%"
  inhibition: 0
- compound: "O=c1c2ccccc2[se]n1-c1ccccc1 [EBSELEN]"
  unitString: "%"
  inhibition: 0
- compound: "O=C(CCCn1[se]c2ccccc2c1=O)N[C@@H]1O[C@H](CO)[C@@H](O)[C@H](O)[C@H]1O"
  unitString: "%"
  inhibition: 0
- compound: "CC(=O)OC[C@H]1O[C@@H](O[C@H]2[C@H](OC(C)=O)[C@@H](OC(C)=O)[C@H](n3[se]c4ccccc4c3=O)O[C@@H]2COC(C)=O)[C@H](OC(C)=O)[C@@H](OC(C)=O)[C@H]1OC(C)=O"
  unitString: "%"
  inhibition: 0
